Target: Phosphatidylinositol 4,5-bisphosphate 3-kinase catalytic subunit alpha isoform (Homo sapiens, UniProt P42336)
Sequence (P42336 whole entry, canonical isoform): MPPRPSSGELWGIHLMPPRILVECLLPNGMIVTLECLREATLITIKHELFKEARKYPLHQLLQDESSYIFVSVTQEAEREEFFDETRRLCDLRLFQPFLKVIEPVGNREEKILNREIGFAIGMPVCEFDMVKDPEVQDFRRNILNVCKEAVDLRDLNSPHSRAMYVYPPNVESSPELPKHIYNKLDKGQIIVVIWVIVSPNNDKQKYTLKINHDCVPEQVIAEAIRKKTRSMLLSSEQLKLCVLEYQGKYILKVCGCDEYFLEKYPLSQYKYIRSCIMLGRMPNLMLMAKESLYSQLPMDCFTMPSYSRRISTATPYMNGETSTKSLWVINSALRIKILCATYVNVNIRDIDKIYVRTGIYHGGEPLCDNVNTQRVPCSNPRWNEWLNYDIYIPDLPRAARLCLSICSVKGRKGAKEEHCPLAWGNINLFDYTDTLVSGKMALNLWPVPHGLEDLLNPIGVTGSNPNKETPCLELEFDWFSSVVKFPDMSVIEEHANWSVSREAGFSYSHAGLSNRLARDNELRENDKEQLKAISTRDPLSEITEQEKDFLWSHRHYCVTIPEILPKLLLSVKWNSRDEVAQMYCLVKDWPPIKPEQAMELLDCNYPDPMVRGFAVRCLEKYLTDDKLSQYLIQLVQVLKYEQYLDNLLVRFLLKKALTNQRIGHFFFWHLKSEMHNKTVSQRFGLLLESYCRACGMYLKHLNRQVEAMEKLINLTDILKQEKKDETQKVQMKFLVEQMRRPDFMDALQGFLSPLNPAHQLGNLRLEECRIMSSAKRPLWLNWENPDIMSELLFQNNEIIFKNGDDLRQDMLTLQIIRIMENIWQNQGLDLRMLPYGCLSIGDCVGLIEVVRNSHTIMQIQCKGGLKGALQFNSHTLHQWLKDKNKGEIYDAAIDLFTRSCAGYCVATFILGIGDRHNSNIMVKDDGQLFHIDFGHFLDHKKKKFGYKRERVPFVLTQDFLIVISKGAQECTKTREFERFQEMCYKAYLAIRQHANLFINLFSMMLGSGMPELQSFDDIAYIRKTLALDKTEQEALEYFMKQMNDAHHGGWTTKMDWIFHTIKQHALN
Experiment: Inhibition of PI3K p110alpha
Property measured: IC50 (µM)

Compound | Quantitative readout
Cc1nc2cnc3ccc(C#Cc4cccnc4)cc3c2n1-c1ccc(C(C)C#N)cc1 (stereo not drawn) | 0.056
N#CCc1ccc(-n2cnc3cnc4ccc(C#Cc5cccnc5)cc4c32)cc1 | 0.064
Cn1c(=O)n(-c2ccc(C(C)(C)C#N)cc2)c2c3cc(C#Cc4cccnc4)ccc3ncc21 | 0.072

Where do the numbers come from? From ChEMBL document CHEMBL1142269.
